Tested on: MS2 coat protein
Experimental details: apparent KD of MS2 coat protein, switch OFF state (with FMN for OFF switches, without FMN for ON switches); designed switch direction (-1 OFF switch, 1 ON switch): -1; higher = weaker reporter binding
Experimental conditions: FMN input: 0 or 200 uM; Eterna round: R93 (includes R88 designs)
Kindly state apparent KD of MS2 coat protein for each of the entries shown.
Please format your answer as a value with the unit trailing.

Incoming: Looking for the measured apparent KD of MS2 coat protein of GGUUGACAAGGAUAUACAUGAGGAUCACCCAUGUGAGAGAAAAAAGUGAGAAAGAAAAGUAGAAGGUGUUGACG [salish99-ex3-62] , can you help?
Outgoing: 85 nM

Incoming: Looking for the measured apparent KD of MS2 coat protein of AACAGGUUAGGAUAUAUGUAACAAAUAAAAAAAAUAUAAACAUAGAAGGAACAUGAGGAUCACCCAUGUUAACA [May 29] , can you help?
Outgoing: 19.4 nM

Incoming: Looking for the measured apparent KD of MS2 coat protein of AAGAAGUGAGGAUAUCGAAGACUGUCGAAAAGACAGUCGAACGAGAAGGCACAUGAGGAUCACCCAUGUGGGAA [Marsurpial 65% 6] , can you help?
Outgoing: 171 nM

Incoming: Looking for the measured apparent KD of MS2 coat protein of AAAACUGGAGGAUAUACAUGAGGAUCACCCAUGUGUGGGUAUACUGUGUCGGCGUCAGGUAGAAGGCCAAAAAA [Gilly Gone Silly 29 - Jieux - Exclusion 3] , can you help?
Outgoing: 151 nM

Incoming: Looking for the measured apparent KD of MS2 coat protein of AGCUAGUCAGGAUAUACGAAAAUGUCAGAGGCAGUAAGGGAACAUGAGGAUCACCCAUGUAGAAGGGACUAGCA [Diamond 40] , can you help?
Outgoing: 87.7 nM

Incoming: Looking for the measured apparent KD of MS2 coat protein of AAAUUAGGAGGAUAUACAUGAGGAUCACCCAUGUGACGAUGUUACUGCAUGAAGCCAAGUAGAAGGUCUAAGAA [Lacelaatdi] , can you help?
Outgoing: 49.5 nM

Incoming: Looking for the measured apparent KD of MS2 coat protein of GAAAAACAUGAGGAUCACCCAUGUCAGGAUAUACAAAAAUAAAUAAAAAUAAAAUAAAGUAGAAGGGACAAAAG [Mat - Same state - Mayanna Mod - D110] , can you help?
Outgoing: 57.3 nM

Incoming: Looking for the measured apparent KD of MS2 coat protein of GGAUGCCUAGGAUAUACAUGAGGAUCACCCAUGUGAGAGAAAAAAGUGAGAAAGAAAAGUAGAAGGAGGUGUCG [salish99-ex3-91] , can you help?
Outgoing: 92.4 nM
